Numbers sourced from patent US20260167714A1.

# Test System: T1, human ILT4 expressed on cells (human, UniProt Q8N423 22-597)
# T1 construct: whole, on cells; also called CHO-S/ILT4 cells; ILT4-CHO cells
# T1 sequence (Q8N423 22-597): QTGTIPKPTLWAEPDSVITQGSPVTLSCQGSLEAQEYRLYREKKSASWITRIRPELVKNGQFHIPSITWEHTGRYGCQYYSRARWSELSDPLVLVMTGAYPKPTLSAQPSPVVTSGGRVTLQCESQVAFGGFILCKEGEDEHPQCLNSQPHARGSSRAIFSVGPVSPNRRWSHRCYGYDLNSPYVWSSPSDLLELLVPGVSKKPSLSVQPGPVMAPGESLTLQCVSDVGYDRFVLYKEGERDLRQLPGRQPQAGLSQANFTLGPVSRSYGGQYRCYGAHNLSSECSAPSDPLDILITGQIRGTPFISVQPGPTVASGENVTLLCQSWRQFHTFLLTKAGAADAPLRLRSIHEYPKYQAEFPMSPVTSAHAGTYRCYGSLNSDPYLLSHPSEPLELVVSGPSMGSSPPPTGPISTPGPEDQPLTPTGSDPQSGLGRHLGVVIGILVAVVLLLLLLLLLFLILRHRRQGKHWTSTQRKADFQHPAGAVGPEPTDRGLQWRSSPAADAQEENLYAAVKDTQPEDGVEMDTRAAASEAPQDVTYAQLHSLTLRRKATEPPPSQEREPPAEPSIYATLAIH
# Procedure Details: flow cytometry on ILT4-CHO cells, unlabelled mAb titrated; competitor AF647-Hz45.01-LALA
Assay Metric: IC50 (µg/mL)
Numeric answer only, unit µg/mL assumed.

Example binders with recorded IC50:
Binder	Measured Result
Hz156.03-LALA (antibody, human IgG1, kappa, L234A L235A, V domains shown, Humanized L156S3, human IgG1 L234A/L235A, kappa) VH: QVQLVQSGAEVKKPGSSVKVSCKASGYTFTDYYMNWVRQAPGQGLEWIARIYPGVYRTHYNEKFKDRVTLTADKSTSTAYMELSSLRSEDTAVYYCARSGYYGGTYEEDAMDYWGQGTTVTVSS VL: DIQMTQSPSSLSASVGDRVTITCRASENIYSNLAWYQQKPGKAPKLLVYAATSLADGVPSRFSGSGSGTDYTLTISSLQPEDFATYYCQNFWDTPYTFGQGTKVEIKR	0.245
J19h1 (antibody, V domains shown) VH: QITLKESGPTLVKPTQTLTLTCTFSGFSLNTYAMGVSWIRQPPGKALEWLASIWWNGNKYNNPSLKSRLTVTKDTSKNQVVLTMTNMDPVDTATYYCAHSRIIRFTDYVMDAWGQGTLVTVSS VL: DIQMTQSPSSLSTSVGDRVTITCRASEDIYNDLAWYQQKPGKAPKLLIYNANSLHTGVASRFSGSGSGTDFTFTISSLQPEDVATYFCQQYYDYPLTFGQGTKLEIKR	0.182
1E1 (antibody, V domains shown) VH: QVQLQQWGAGLLKPSETLSLTCAVYGGSFSGYYWSWIRQPPGKGLEWIGEINHSGSTNYNPSLKSRVTISVDTSKNQFSLKLSSVTAADTAVYYCARLPTRWVTTRYFDLWGRGTLVTVSS VL: QSVLTQPPSVSGAPGQRVTISCTGSSSNIGAGYDVHWYQQLPGTAPKLLIYGNSNRPSGVPDRFSVSKSGASASLAITGLQAEDEADYYCQSFDNSLSAYVFGGGTQLTVL	0.171

IC50 for Hz45.01-LALA (antibody, human IgG1, kappa, L234A L235A, V domains shown, Humanized L45S4, human IgG1 L234A/L235A, kappa; also called Humanized 45_01; Hu IgG 45_01 LALA) VH: QVQLVQSGAEVKKPGASVKVSCKASGYTFTDYYMNWVRQAPGQRLEWIGDINPNNGGTSYNQKFKGRATITVDTSASTAYMELSSLRSEDTAVYYCARGGAELTGTYWYFDVWGQGTTVTVSS VL: DIQMTQSPSSLSASVGDRVTITCRASENIYSNLAWYQQKPGKAPKVLVYGATNLADGVPSRFSGSGSGTEYTLTISSLQPEDFATYYCQHFWDSPFTFGGGTKVEIKR ?
0.31
